- Test system: HCC-2998 colon
- protocol: NCI-60 one-dose screen, 48 h (100 = growth as untreated, 0 = no growth, -100 = all killed)
- measurement parameters: 10 µM unless noted
This is part of a sample that, as a whole, favours compounds with a hit. Of some 83,000 tested, about 20% had one in any assay.
measure: growth (%)
The answer is to be given in %; state only the numeric part.

| compound | measurement units | growth |
| --- | --- | --- |
| Oc1ccc(-c2nnc(SCc3ccc(O)c4ncccc34)o2)cc1 | % | 22.5 |
| Clc1ccc(-c2nc3ccc(/C(=N\N=C\c4ccccc4)c4ccccc4)cc3[nH]2)cc1 | % | 103 |
| Clc1ccc(-c2csc(Nc3cccc(Nc4csc(-c5ccc(Cl)cc5)n4)c3)n2)cc1 | % | 89.3 |

Field request: growth | item: CCOC(=O)c1c(NCC(=O)Nc2cccc(Cl)c2)sc2c1CCCC2
103

Please give the measured growth for this compound: CSc1ccc(/C(=N/N=C(N)N)c2ccccc2)cc1
9.99

----------
- Tested on: SF-268 CNS
- protocol: NCI-60 one-dose screen, 48 h
- measurement parameters: 10 µM unless noted
- Experimental: Cells are grown in 96 well plates and exposed to the test compound for 48 hours. Compounds are tested at a single concentration, which is 10^-5 M for most compounds. The reported endpoint is percent growth (GI% or GIPRCNT), where numbers from 0 - 100% represent growth inhibition, and numbers from -100% - 0 represent cell death. For example, a value of 40 represents 60% growth inhibition. A value of 0 means no net growth occurred over the course of the experiment. […]
The panel holds about 83,000 compounds, 20% with a hit somewhere; the sample as a whole holds those more often. Active and inactive are the calls of the source. Rule for the calls: active = growth percent below 10; inactive = the rest.
// one of Yes = active, No = inactive, no free text

Examples from the recorded data:
| compound | class |
| --- | --- |
| Oc1ccc(CSc2nnc(-c3cnccn3)o2)c2cccnc12 | No |
| CCN(CC)CCCC(C)NCC(=O)NC(c1ccc2c(c1)OCO2)c1cc(Cl)c2cccnc2c1O (centres undefined) | No |
| Cc1ccc(Cc2cnc(NC(=O)/C(C#N)=C/c3ccc(-c4ccc(Cl)cc4)o3)s2)cc1 | No |
| C/C(=N\NC(=S)Nc1ccc(Br)cc1)c1cc2ccccc2oc1=O | No |
| COc1ccc([C@H]2[C@H](O)C(=O)N2c2cc(OC)c(OC)c(OC)c2)cc1O | No |

// outcome(item) with item = Cc1cn(-c2cc(NC(=O)c3cncc(C#Cc4cnc5ccc(OCCCS(C)(=O)=O)nn45)c3)cc(C(F)(F)F)c2)cn1
Yes

Field: outcome | Entry: O=C(NNc1nc2cc(F)ccc2n2cncc12)c1cnccn1
No

Test call, this compound: Clc1ccc(-c2nc3ccc(/C(=N\N=C\c4ccccc4)c4ccccc4)cc3[nH]2)cc1
No

Which outcome was assigned to O=C(O)CNS(=O)(=O)c1ccc(Oc2ccc(S(=O)(=O)NCC(=O)O)cc2)cc1 in this test?
No

What is the recorded call for this compound in the test? Cc1ccc(NC(=O)c2cccc(CN3CCN(C)CC3)c2)cc1Oc1ccc(-c2[nH]nc3ncnc(N)c23)cc1
No

Fill in: this test's call for O=c1oc2ccc(-c3ccc(F)cc3F)cc2c(=O)n1-c1cccc(C(F)(F)F)c1 is ___
No

Assay result, entry O=C(COc1ccc(C2SCC(=O)N2c2ccccc2)cc1)c1ccccc1 (centres undefined) — outcome?
No

Assay outcome for CS(=O)c1nccc(-c2c(-c3ccc(F)c(OCc4ccc(F)cc4)c3)nc3sccn23)n1 (centres undefined) : what was it?
No

Which outcome did this test record for the compound CN1CCN(c2nc(-c3csc(-c4ccncc4)n3)cc3ccccc23)CC1 ?
No

Per the records of this test, what outcome belongs to COc1ccc([C@H]2[C@H](O)C(=O)N2c2cc(OC)c(OC)c(OC)c2)cc1 ?
No

What outcome does the record of this test show for O=C(NNc1nc2cc(F)c(F)cc2n2cccc12)c1cccnn1 ?
No

Short answer needed: outcome of this test for O=c1[nH]c(CCl)nc2c1cnn2-c1ccccc1 ?
No

Short answer needed: outcome of this test for CCN(CC)CCN1C(=O)c2c(c3c4cccnc4[nH]c3c3ccc4ccccc4c23)C1=O ?
No

----------
- System: HOP-92 NSCLC
- protocol: NCI-60 one-dose screen, 48 h
- measurement parameters: 10 µM unless noted
- Description: Growth inhibition of the HOP-92 human Non-Small Cell Lung tumor cell line is measured as a screen for anti-cancer activity. Cells are grown in 96 well plates and exposed to the test compound for 48 hours. Compounds are tested at a single concentration, which is 10^-5 M for most compounds. The reported endpoint is percent growth (GI% or GIPRCNT), where numbers from 0 - 100% represent growth inhibition, and numbers from -100% - 0 represent cell death. […]
Compounds without any hit were thinned out: in the full panel of roughly 83,000, 20% have a hit. Calls of active or inactive are those of the source. Rule for the calls: active = growth percent below 10; inactive = the rest.
Write down one outcome, taken from 1 (yes) (active), 0 (no) (inactive)

# example entries with known answers
| item smiles | class |
| --- | --- |
| CC(C)N=C(N/C(N)=N/c1nc2ccccc2s1)NC(C)C | 0 (no) |
| CCOC(=O)c1c(NCC(=O)Nc2cccc([N+](=O)[O-])c2)sc2c1CCCC2 | 1 (yes) |
| O=C(Nc1cccc(-c2nc(-c3ccc(NC(=O)c4cccs4)cc3Cl)no2)c1)Nc1ccc(NC(=O)C2CC2)c(C(F)(F)F)c1 | 1 (yes) |
| C#C[C@]1(O)CC[C@H]2[C@@H]3CC=C4c5sc(Nc6cccc(C)n6)nc5CC[C@]4(C)[C@H]3CC[C@@]21C | 1 (yes) |
| COc1ccc(NC(=O)[C@H](C)N)cc1C(=O)Nc1cccc(-c2cc(=O)c3c(OC)c(OC)c(OC)cc3o2)c1 | 1 (yes) |
| COC(=O)[C@@]1(C)CC[C@]2(C)CC[C@]3(C)C(=CC(=O)[C@@H]4[C@@]5(C)Cc6c(n(CC#CCN7CCN(C)CC7)c7ccccc67)C(C)(C)[C@@H]5CC[C@]43C)[C@@H]2C1 | 0 (no) |
| COc1ccc(CCN2C(=O)/C(=C/c3nc(CO)cs3)SC2=S)cc1 | 0 (no) |

Outcome? Nc1ccc(-c2nnc(SCc3ccc(O)c4ncccc34)o2)cc1
1 (yes)

----------
- Tested on: MDA-MB-435 melanoma
- protocol: NCI-60 one-dose screen, 48 h
- measurement parameters: 10 µM unless noted
About 83,000 compounds went through this panel and 20% of them were active in at least one assay; those are over-represented in the sample as a whole. Active and inactive are the calls of the source. The calls were made as follows: active = growth percent below 10; inactive = the rest.
Lab note: assign the record to one of active, inactive

Below, 5 molecules whose answers are already recorded.
| molecule | target entity | class |
| --- | --- | --- |
| C#C[C@]1(O)CC[C@H]2[C@@H]3CC=C4c5sc(Nc6cccc(C)n6)nc5CC[C@]4(C)[C@H]3CC[C@@]21C | MDA-MB-435 melanoma | active |
| CC(=O)NC(C)(C)C(=O)N1CCC[C@H]1C(=O)NC(C)(C)C(=O)N[C@@H](C)C(=O)NC(C)(C)C(=O)N[C@@H](C)C(=O)N[C@@H](CCC(N)=O)C(=O)NC(C)(C)C(=O)N[C@H](C(=O)NC(C)(C)C(=O)NCC(=O)N[C@@H](CC(C)C)C(=O)NC(C)(C)C(=O)N1CCC[C@H]1C(=O)N[C@H](C(=O)NC(C)(C)C(=O)NC(C)(C)C(=O)N[C@@H](CCC(N)=O)C(=O)N[C@@H](CCC(N)=O)C(=O)N[C@H](CO)Cc1ccccc1)C(C)C)C(C)C | MDA-MB-435 melanoma | inactive |
| Oc1ccc(CSc2nnc(-c3cnccn3)n2-c2ccccc2)c2cccnc12 | MDA-MB-435 melanoma | inactive |
| IP(CCCCCCCCCCSc1n(Cc2ccc3ccccc3c2)c(-c2ccccc2)c(-c2ccccc2)[n+]1Cc1ccc2ccccc2c1)(c1ccccc1)(c1ccccc1)c1ccccc1 | MDA-MB-435 melanoma | active |
| O=C1Nc2ccc(Br)cc2/C1=N\c1nnc(-c2ccc(Cl)cc2)o1 | MDA-MB-435 melanoma | active |

# fetch the recorded call for C=C(C)[C@@H]1CC[C@]2(C(=O)ON)CC[C@]3(C)[C@H](CC[C@@H]4[C@@]5(C)C/C(=C/c6ccc(Br)cc6)C(=O)C(C)(C)[C@@H]5CC[C@]43C)[C@@H]12 here
inactive

I'd appreciate the recorded outcome for COc1cc2c3c(n(CCCNC4CCC4)c(=O)c2cc1OC)-c1cc2c(cc1C3=O)OCO2 from this test.
active

// param item: CCN1C(=O)N(CC)C2SC(N/N=C/c3ccc(F)cc3)=NC21 (centres undefined) ; yields the recorded call
active

Fill in: this test's call for O=C(CCCCCCN1CC(=O)N2[C@@H](c3ccc(Cl)c(F)c3)c3[nH]c4ccccc4c3C[C@H]2C1=O)NO is ___
inactive

Field: outcome | Entry: N#Cc1c(-c2cccs2)cc(-c2cnccn2)nc1SCC(=O)NNC(=S)Nc1ccc(F)cc1
inactive

Dear all, I need the recorded test outcome for Cc1nn(-c2ccccc2)cc1/C=N/Nc1nc(Nc2ccccc2)nc(Nc2ccc(S(N)(=O)=O)cc2)n1 , thank you.
active

State the result this test recorded for CCc1ccc(NC(=O)N[C@@H](Cc2cccc(C)c2)C(=O)N[C@@H]2C(=O)N3CCC[C@H]3C(=O)N3CCCC[C@H]3C(=O)N[C@@H](CO)C(=O)N3C[C@H](C)C[C@H]3C(=O)O[C@H]2C)c(F)c1 .
inactive

Recorded test call requested for CC1COc2c(N3CCN(C)CC3)c(F)cc3c(=O)c(C(=O)N/N=C/c4cc[nH]c4)cn1c23 (centres undefined)
inactive

Dear all, I need the recorded test outcome for Cc1ccc(-c2nnc3sc(C4=Cc5ccccc5OC=C4)nn23)cc1 , thank you.
inactive

Kindly provide the recorded test outcome for the following molecule: Oc1ccc(CSc2nnc(-c3ccncc3)n2-c2ccccc2)c2cccnc12
inactive

What was the test verdict on COc1ccc(/C=N\NC(=O)c2ccc3nc(-c4ccc(Br)cc4)[nH]c3c2)cc1 ?
inactive
